- TESTED SYSTEM: human apelin receptor (Homo sapiens, UniProt P35414)
- Construct: expressed in transfected cells
- ASSAY PROCEDURE: Determination of agonism on the human apelin receptor by a calcium fluorescence assay (FLIPR)
- Type: cell-based
- CONDITION CONTEXT: HEK293 cells stably transfected with human apelin receptor and Giaq protein, Fluo-4 calcium fluorescence, read-out: EC50 (APJ agonism)
pEC50: −log10 of the molar value.
Please mark condition met if the recorded pEC50 is equal to or greater than 6, and condition not met if it falls below.

Could you verify whether the entry "CCC(CC)n1c(Cc2cccs2)nc2cc(C(=O)N[C@@H](CC(C)C)C(=O)NCc3ccc(OC)cc3)ccc21" shows pEC50 of no less than 6? condition not met

Does the compound "CCC[C@H](CO)NC(=O)c1ccc2c(c1)nc(Cc1cccs1)n2C(CC)CC" have recorded pEC50 that is 6 or more? condition not met

pEC50 >= 6 for CCC(CC)n1c(Cc2cccs2)nc2cc(C(=O)NC(CCC(F)(F)F)C(=O)O)ccc21 (stereo not drawn) ? condition not met

Please check the record "CCC(CC)n1c(Cc2cccs2)nc2cc(C(=O)N[C@@H](CC(C)C)C(=O)N3CCC(N4CCN(C)CC4)CC3)ccc21" and state if its pEC50 is at or above 6. condition met

Check if pEC50 >= 6 (inclusive). Item: "CCC(CC)n1c(Cc2cccs2)nc2cc(C(=O)N[C@@H](CC(C)C)C(=O)N(C)Cc3ccccc3)ccc21" condition not met

Does the compound CCCC(CCO)NC(=O)c1ccc2c(c1)nc(Cc1cccs1)n2C(CC)CC (single isomer, unassigned) [Example 471] have recorded pEC50 that is 6 or more? condition not met

Has CCCC(CC(=O)O)NC(=O)c1ccc2c(c1)nc(Cc1cccs1)n2[C@@H]1CCCC[C@H]1C (single isomer, unassigned) [Example 458] a recorded pEC50 greater than or equal to 6? condition met

Is reported pEC50 greater than or equal to 6 here: CCC(CC)n1c(Cc2cccs2)nc2cc(C(=O)N[C@@H](CC(C)C)C(=O)NC(C)CC(C)C)ccc21 (stereo partly drawn) condition not met

Does the reported pEC50 for "CCC(CC)n1c(Cc2cccs2)nc2cc(C(=O)N[C@@H](CC(C)C)C(=O)NCc3ccco3)ccc21" fall at or above the 6 mark? condition not met

I'd appreciate it if you could say whether "CCC(CC)n1c(Cc2cccs2)nc2cc(C(=O)N[C@@H](CC(C)C)[C@H](O)C(=O)O)ccc21" has pEC50 at least equal to 6. condition met

Check if pEC50 >= 6 (inclusive). Item: "CCC(CC)n1c(Cc2cccs2)nc2cc(C(=O)N[C@@H](CC(C)C)C(=O)N3CCCN(Cc4ccc(F)cc4)CC3)ccc21" condition not met

Entry "CCC(CC)n1c(Cc2cccs2)nc2cc(C(=O)N[C@@H](CC(C)C)CS(=O)(=O)c3nnc[nH]3)ccc21" : is its pEC50 no less than 6? condition met

Does "CCC(CC)n1c(Cn2cccn2)nc2cc(C(=O)N[C@H](CC(=O)O)CC(C)C)ccc21" have a reported pEC50 of at least 6? condition not met

Does the reported pEC50 for "CCC(CC)n1c(Cc2cccs2)nc2cc(C(=O)N[C@@H](CO)C3CCCCC3)ccc21" fall at or above the 6 mark? condition not met

###

- TESTED SYSTEM: human apelin receptor (Homo sapiens, UniProt P35414)
- Construct: expressed in transfected cells
- Sequence (P35414 1-380): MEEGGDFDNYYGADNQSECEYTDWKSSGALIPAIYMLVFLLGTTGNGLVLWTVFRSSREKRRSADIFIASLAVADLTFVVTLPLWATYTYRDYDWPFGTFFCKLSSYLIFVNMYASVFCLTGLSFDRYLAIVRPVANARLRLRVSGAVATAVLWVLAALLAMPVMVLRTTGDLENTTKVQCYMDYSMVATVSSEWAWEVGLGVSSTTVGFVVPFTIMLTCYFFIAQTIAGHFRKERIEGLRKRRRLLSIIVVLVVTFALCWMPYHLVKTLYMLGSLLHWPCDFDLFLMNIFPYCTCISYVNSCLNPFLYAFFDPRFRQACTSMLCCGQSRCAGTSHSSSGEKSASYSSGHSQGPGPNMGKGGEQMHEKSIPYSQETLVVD
- ASSAY PROCEDURE: Determination of agonism on the human apelin receptor by a calcium fluorescence assay (FLIPR)
- Assay type: cell-based
- CONDITION CONTEXT: HEK293 cells stably transfected with human apelin receptor and Giaq protein, Fluo-4 calcium fluorescence, read-out: EC50 (APJ agonism)
QUANTITY KIND: log10 EC50 (log10 of the value in nM)
Scale: decimal log of EC50, EC50 in nM.

Fill in the recorded log10 EC50 for this compound, with human apelin receptor (Homo sapiens, UniProt P35414) as test system: CCC(CC)n1c(Cc2cccs2)nc2cc(C(=O)N[C@@H](CC(C)C)C(=O)N3CCN(c4ccc(F)cc4)CC3)ccc21 [Example 270] 4.03

Write down the reported log10 EC50 of CCC(CC)n1c(Cc2cccs2)nc2cc(C(=O)NC(CC3CCCCCC3)C(=O)O)ccc21 (single isomer, unassigned) [Example 448] , test system: human apelin receptor (Homo sapiens, UniProt P35414). 2.85

Provide the documented log10 EC50 with human apelin receptor (Homo sapiens, UniProt P35414) as the system for CCC1CCCCC1n1c(Cc2cccs2)nc2cc(C(=O)N[C@@H](CC(C)C)C(=O)O)ccc21 (some centres unmarked) [Example 93] 2.46

Give log10 EC50 (human apelin receptor (Homo sapiens, UniProt P35414)) of the following compound: CCC(CC)n1c(Cc2cccs2)nc2cc(C(=O)N[C@@H](CC(C)C)C(=O)NCc3ccccc3OC)ccc21 [Example 238] 3.82

Kindly state the measured log10 EC50 obtained for CCC(CC)n1c(Cc2cccs2)nc2cc(C(=O)N[C@@H](CC(C)C)C(=O)N3CCC(N4CCCCC4)C3)ccc21 (some centres unmarked) [Example 299] with human apelin receptor (Homo sapiens, UniProt P35414). 2.89

Under human apelin receptor (Homo sapiens, UniProt P35414): log10 EC50 value of CCC(CC)n1c(Cc2cccs2)nc2cc(C(=O)N[C@@H](CC(C)C)C(=O)N(C)CC3CCCO3)ccc21 (some centres unmarked) [Example 387] ? 3.06

Form field - read-out: log10 EC50; system: human apelin receptor (Homo sapiens, UniProt P35414); submitted item: CCC(CC)n1c(Cc2cccs2)nc2cc(C(=O)N[C@@H](CC(C)C)C(=O)NCC3CCCN(CC)C3)ccc21 (some centres unmarked) [Example 303] 2.33

Find the measured log10 EC50: item CCC(CC)n1c(Cc2cccs2)nc2cc(C(=O)N[C@@H](CC(C)C)C(=O)NCCOC)ccc21 [Example 268] , target or system human apelin receptor (Homo sapiens, UniProt P35414). 2.74

What is its log10 EC50 for human apelin receptor (Homo sapiens, UniProt P35414)? Entry: CCC(CC)n1c(Cc2cccs2)nc2cc(C(=O)N[C@@H](CC(C)C)C(=O)NCCc3cccs3)ccc21 [Example 223] 3.84

I'm curious: which log10 EC50 was measured for CCC(CC)n1c(Cc2cccs2)nc2cc(C(=O)NC(C(N)=O)c3ccccc3)ccc21 (centres unmarked) [Example 170] tested on human apelin receptor (Homo sapiens, UniProt P35414)? 4.00

Field: log10 EC50 (human apelin receptor (Homo sapiens, UniProt P35414)). Entry: CCC(CC)n1c(Cc2cccs2)nc2cc(C(=O)N[C@@H](CC(C)C)C(=O)N(C)CCc3ccccc3)ccc21 [Example 264] 3.52

API: value(readout=log10 EC50, system=human apelin receptor (Homo sapiens, UniProt P35414)) for record CCC(CC)n1c(Cc2cccs2)nc2cc(C(=O)N[C@@H](CC(C)C)C(=O)NCc3nccs3)ccc21 [Example 250] 2.72

// lookup log10 EC50 | system=human apelin receptor (Homo sapiens, UniProt P35414) | key= CCCC(C)(NC(=O)c1ccc2c(c1)nc(Cc1cccs1)n2C(CC)CC)C(=O)O (centres unmarked) [Example 25] 3.68

Recorded log10 EC50 for CCC(CC)n1c(Cc2cccs2)nc2cc(C(=O)N[C@@H](CC(C)C)C(=O)N3CCN(c4ccccn4)CC3)ccc21 [Example 312] with human apelin receptor (Homo sapiens, UniProt P35414), please? 3.47

###

- TESTED SYSTEM: human apelin receptor (Homo sapiens, UniProt P35414)
- Construct: expressed in transfected cells
- ASSAY PROCEDURE: Determination of agonism on the human apelin receptor by a calcium fluorescence assay (FLIPR)
- Format: cell-based
- CONDITION CONTEXT: HEK293 cells stably transfected with human apelin receptor and Giaq protein, Fluo-4 calcium fluorescence, read-out: EC50 (APJ agonism)
- Protocol: Determination of Agonism on the Human Apelin Receptor by a Calcium Fluorescence Assay (FLIPR) The assay is based on the detection of intracellular calcium changes detected by the selective, calcium-chelating dye Fluo-4 (Molecular Probes). A large fluorescence intensity increase is observed upon calcium association with Fluo-4. […] EC-50 values for apelin-13 and the apelin receptor compounds described in this patent were determined by standard algorithms using a specific software package.
Would you kindly list pEC50 for each of these compounds?
Bear in mind: pEC50 is minus log10 of a mol/L concentration; give just that figure.

Quick one: pEC50 of CC(C)C[C@H](NC(=O)c1ccc2c(c1)nc(Cc1cccs1)n2C1CCCCC1C)C(=O)O (single isomer, unassigned) [Example 414] ? 6.18

Give its pEC50 value. Item: CCC(CC)n1c(Cc2cccs2)nc2cc(C(=O)N[C@@H](CC(C)C)C(=O)N3CC4CC3CN4c3cccc(F)c3)ccc21 (stereo partly shown) 4.79

Looking for the measured pEC50 of CCC(CC)n1c(Cc2cccs2)nc2cc(C(=O)NC(CC(C)C)c3nc(C)c(C)s3)ccc21 (stereo not shown) , can you help? 4.70

Field request: pEC50 | item: CCC(CC)n1c(Cc2cccs2)nc2cc(C(=O)N[C@@H](CC(C)C)C(=O)NC3CCN(Cc4ccccc4)C3)ccc21 (stereo partly shown) 5.82

I would be grateful if you could share the reported pEC50 for CCC(CC)n1c(Cc2cccs2)nc2cc(C(=O)N[C@@H](CC(C)C)C(=O)N3CCCC(OC)C3)ccc21 (stereo partly shown) . 5.74

Query (compound): "CCC(CC)n1c(Cc2cccs2)nc2cc(C(=O)N[C@@H](CO)CC(C)C)ccc21" ; field requested: pEC50 5.20

I would be grateful if you could share the reported pEC50 for "CCC(CC)n1c(Cc2cccs2)nc2cc(C(=O)N[C@@H](CC(C)C)C(=O)N3CCC(N4CCc5ccccc5C4)CC3)ccc21" . 5.99

Cited source for all entries: patent US9156796B2
